Field: pIC50. Provide a value for each of the compounds that follow.
Target: mALDH1a3 (Mus musculus)
Sequence (Q9JHW9 1-512): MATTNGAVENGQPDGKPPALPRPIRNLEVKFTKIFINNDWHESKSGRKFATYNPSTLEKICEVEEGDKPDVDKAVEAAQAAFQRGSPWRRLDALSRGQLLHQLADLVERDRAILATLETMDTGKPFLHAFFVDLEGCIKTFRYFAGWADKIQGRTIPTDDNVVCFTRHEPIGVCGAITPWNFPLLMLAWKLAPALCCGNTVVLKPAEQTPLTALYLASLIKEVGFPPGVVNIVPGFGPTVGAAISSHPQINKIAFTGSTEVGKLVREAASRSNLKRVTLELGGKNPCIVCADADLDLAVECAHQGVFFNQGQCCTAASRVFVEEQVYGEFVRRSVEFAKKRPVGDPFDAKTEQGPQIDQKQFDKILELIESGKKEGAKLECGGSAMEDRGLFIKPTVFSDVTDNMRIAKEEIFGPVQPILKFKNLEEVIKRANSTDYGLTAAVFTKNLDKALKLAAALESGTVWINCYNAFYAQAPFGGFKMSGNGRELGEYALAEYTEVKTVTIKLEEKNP
Experiment: Aldh1a3 enzyme inhibition assay, recombinant mALDH1a3
Settings: resorufin fluorescence, 20° C.
pIC50: −log10 of the molar value.

-- ask Fill in pIC50 for record CCCc1cnccc1C(=O)Nc1ccc2c(c1)CCC(=O)N2
-- reply 6.00 to 6.60

-- ask Give reported pIC50 value for CC1(C)Cc2cc(Nc3cccc(Cl)n3)ccc2NC1=O
-- reply < 5.30

-- ask Please indicate pIC50 recorded for O=C1CCc2cc(NC(=O)c3ccncc3C(F)(F)F)ccc2N1
-- reply < 5.30

-- ask Query pIC50 for O=C1CCc2cc(Oc3ncc4ccccc4n3)ccc2N1
-- reply < 5.30

-- ask Quote pIC50 reported for CCc1cc(=O)n(C)cc1C(=O)Nc1ccc2c(c1)CCC(=O)N2 please.
-- reply < 5.30

List pIC50 for every entry below, keeping the order given.
1. CCc1cnc(C)cc1C(=O)Nc1cc2c(cc1F)NC(=O)CC2 [Compound 8]
2. COc1cnccc1C(=O)Nc1cc2c(cc1F)NC(=O)C(C)(C)C2

-- reply
1. 6.60 to 7.00
2. < 5.30

Cited source for all entries: patent US20230128402A1
